- System: HCV replicon cells
- measurement-protocol: Cell-based HCV replicon assay (replicon RNA by Taqman real time PCR)
- measurement-parameters: read-out: 1b EC50
Please respond with Condition met when measured EC50 is strictly beneath 5 µM, and with Condition not met in all other cases.

Please let me know if C[C@H](NP(=O)(OC[C@H]1O[C@@H](n2ccc(N)nc2=O)[C@](C)(N=[N+]=[N-])[C@@H]1O)Oc1ccccc1Cl)C(=O)OCC(C)(C)C (single isomer, unassigned) [Compound 182] shows EC50 below 5 µM.
Condition not met

Next:
Please let me know if CCCCOC(=O)[C@H](C)NP(=O)(OC[C@H]1O[C@@H](n2cnc3c(OCC)nc(N)nc32)[C@](C)(N=[N+]=[N-])[C@@H]1O)Oc1ccccc1 (single isomer, unassigned) shows EC50 below 5 µM.
Condition met

Please let me know if CCOc1nc(N)nc2c1ncn2[C@@H]1O[C@H](COP(=O)(N[C@@H](C)C(=O)OC(C)C)Oc2ccccc2Cl)[C@@H](O)[C@@]1(C)N=[N+]=[N-] (single isomer, unassigned) [Compound 316] shows EC50 below 5 µM.
Condition not met

Please let me know if COc1nc(N)nc2c1ncn2[C@@H]1O[C@H](COP(=O)(N[C@@H](C)C(=O)OC2CCCCC2)Oc2ccccc2)[C@@H](O)[C@@]1(C)N=[N+]=[N-] (single isomer, unassigned) [Compound 275] shows EC50 below 5 µM.
Condition met

Please let me know if CC(C)OC(=O)[C@H](C)NP(=O)(OC[C@H]1O[C@@H](n2ccc(N)nc2=O)[C@](C)(N=[N+]=[N-])[C@@H]1O)Oc1ccccc1Cl (single isomer, unassigned) [Compound 204] shows EC50 below 5 µM.
Condition met

Please let me know if CC(C)OC(=O)[C@H](C)NP(=O)(OC[C@H]1O[C@@H](n2ccc(=O)[nH]c2=O)[C@](C)(N=[N+]=[N-])[C@@H]1O)Oc1ccc2c(c1)OCO2 (stereo partly shown) shows EC50 below 5 µM.
Condition not met

Please let me know if CCCCOC(=O)[C@H](C)NP(=O)(OC[C@H]1O[C@@H](n2ccc(=O)[nH]c2=O)[C@](C)(N=[N+]=[N-])[C@@H]1O)Oc1ccccc1 (single isomer, unassigned) [Compound 169] shows EC50 below 5 µM.
Condition met

----------
- Test system: HCV replicon cells
- measurement-protocol: Cell-based HCV replicon assay (replicon RNA by Taqman real time PCR)
- measurement-parameters: Hepatitis C virus, 72 h, HCV replicon 1b, cells harvested on day 3; read-out: 1b EC50
Reported pEC50 values are given for each entry in this list.
// pEC50 here means minus log10 of the molar concentration (mol/L)

Query: pEC50; subject: CCOc1nc(N)nc2c1ncn2[C@@H]1O[C@@H]2COP(=O)(OC3CCCCC3)O[C@H]2[C@@]1(C)N=[N+]=[N-] (stereo partly drawn)
4.30

Please find the next compound below.
Query: pEC50; subject: CCOc1nc(N)nc2c1ncn2[C@@H]1O[C@@H]2COP(=O)(OC3CCCC3)O[C@H]2[C@@]1(C)N=[N+]=[N-] (stereo partly drawn)
6.15

----------
- Tested on: HCV replicon cells
- measurement-protocol: Cell-based HCV replicon assay (replicon RNA by Taqman real time PCR)
- measurement-parameters: read-out: 1b EC50
Reported pEC50 values are given for each entry in this list.
// pEC50 here means minus log10 of the molar concentration (mol/L)

Some molecules with known pEC50 results, for comparison:
Query: pEC50; subject: COC(=O)c1ccccc1OP(=O)(N[C@@H](C)C(=O)OC)OC[C@H]1O[C@@H](n2ccc(=O)[nH]c2=O)[C@](C)(N=[N+]=[N-])[C@@H]1O (single isomer, unassigned) [Compound 227]
5.51

Query: pEC50; subject: CCOc1nc(N)nc2c1ncn2[C@@H]1O[C@H](COP(=O)(N[C@@H](C)C(=O)OC)Oc2ccc(Cl)cc2)[C@@H](O)[C@@]1(C)N=[N+]=[N-] (single isomer, unassigned) [Compound 311]
6.05

Query: pEC50; subject: CCCOC(=O)[C@H](C)NP(=O)(OC[C@H]1O[C@@H](n2cnc3c(OCC)nc(N)nc32)[C@](C)(N=[N+]=[N-])[C@@H]1O)Oc1ccccc1 (single isomer, unassigned)
6.00

Query: pEC50; subject: COc1nc(N)nc2c1ncn2[C@@H]1O[C@H](COP(=O)(N[C@@H](C)C(=O)OCC(C)C)Oc2ccc(Cl)cc2)[C@@H](O)[C@@]1(C)N=[N+]=[N-] (single isomer, unassigned)
7.00

Query: pEC50; subject: COc1nc(N)nc2c1ncn2[C@@H]1O[C@H](COP(=O)(N[C@@H](C)C(=O)OC2CCCCC2)Oc2ccc(F)cc2)[C@@H](O)[C@@]1(C)N=[N+]=[N-] (single isomer, unassigned) [Compound 264]
6.70

Next:
Query: pEC50; subject: CC(C)OC(=O)[C@H](C)NP(=O)(OC[C@H]1O[C@@H](n2ccc(N)nc2=O)[C@](C)(N=[N+]=[N-])[C@@H]1O)Oc1ccc2c(c1)OCO2 (single isomer, unassigned) [Compound 334]
4.89

Query: pEC50; subject: COc1nc(N)nc2c1ncn2[C@@H]1O[C@H](COP(=O)(N[C@@H](C)C(=O)OC(C)C)Oc2ccccc2Cl)[C@@H](O)[C@@]1(C)N=[N+]=[N-] (single isomer, unassigned) [Compound 280]
5.30

Query: pEC50; subject: CCOc1nc(N)nc2c1ncn2[C@@H]1O[C@H](COP(=O)(N[C@@H](C)C(=O)OC)Oc2ccc(Cl)cc2)[C@@H](O)[C@@]1(C)N=[N+]=[N-] (single isomer, unassigned) [Compound 312]
5.66
